System: P12-Ichikawa
protocol-text: cell viability relative to DMSO control; higher = less cytotoxic
condition-description: HPLM + 10% dialyzed FBS; 48 h; 0.0211 µM
parameter: cell viability (%)
Quick reminder: number only, in %, skip the unit.

Fill in cell viability for record "Cc1cnc(Nc2ccc(OCCN3CCCC3)cc2)nc1Nc1cccc([S+](=O)([O-])NC(C)(C)C)c1"
110

Specify reported cell viability for the compound shown: "COC1=CC=C2C(=CC=NC2=C1)OC3=CC=C(NC(=O)\C4=C(C)\N(CC(C)(C)O)N(C4=O)C5=CC=CC=C5)C=C3F"
123

Input "CC1=C2N=C([NH]C2=CC(=C1)N3CCOCC3)\C4=C(NC[C@@H](O)C5=CC=CC(=C5)Cl)\C=C/NC4=O" , output reported cell viability.
109

Please supply the value of reported cell viability for the item C[Se]CCC(N)C(=O)O (stereo not drawn)
84.9

Entry "COc1ccc(-c2c(-c3ccc(O)cc3O)n[nH]c2C)cc1" needs its cell viability filled in; supply it.
112

Let me know recorded cell viability for "CC1(C)O[C@H]2CC(=O)OC[C@]23[C@H]2CC[C@@]4(C)[C@H](c5ccoc5)OC(=O)[C@H]5O[C@]54[C@]2(C)C(=O)C[C@@H]13" , thanks.
105

Note cell viability for the compound shown: O=P(O)(O)C(O)(Cc1cccnc1)P(=O)(O)[O][Na] (stereo not drawn)
11.3

Assign cell viability to the following record: "CCCn1c(=O)c2[nH]c(C34CC5CC3C[C@@H](C5)C4)nc2n(CCC)c1=O"
97.8

Look up and state reported cell viability for "CC1=C(/C=C/C(C)=C/C=C/C(C)=C/C(=O)Nc2ccc(O)cc2)C(C)(C)CCC1"
96.1

Please supply the value of reported cell viability for the item "COc1ccc2cccc(CCNC(C)=O)c2c1"
102

Fill in cell viability for record Cn1c(=O)c2c(ncn2CC(O)CO)n(C)c1=O (stereo not drawn)
111
